experimental system: Brk (Homo sapiens, UniProt Q13882)
Construct: CEREP, France (ran the assays)
Sequence (Q13882 whole entry): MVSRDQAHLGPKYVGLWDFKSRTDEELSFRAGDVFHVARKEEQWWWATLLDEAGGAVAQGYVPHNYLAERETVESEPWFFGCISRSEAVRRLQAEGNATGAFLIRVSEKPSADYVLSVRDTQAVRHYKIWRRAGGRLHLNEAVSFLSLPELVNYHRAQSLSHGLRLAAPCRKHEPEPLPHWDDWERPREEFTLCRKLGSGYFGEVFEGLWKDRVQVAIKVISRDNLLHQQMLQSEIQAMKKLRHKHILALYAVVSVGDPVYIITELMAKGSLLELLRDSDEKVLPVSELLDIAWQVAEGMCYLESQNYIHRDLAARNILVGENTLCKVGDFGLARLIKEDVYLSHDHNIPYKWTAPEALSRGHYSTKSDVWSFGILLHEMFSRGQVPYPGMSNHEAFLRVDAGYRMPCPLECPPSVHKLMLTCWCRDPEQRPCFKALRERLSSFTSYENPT
assay: Kinase Selectivity Assay (CEREP, HTRF)
Assay type: biochemical
measurement conditions: read-out: % Inhibition at 10 μM Concentration, Brk
Overview of recorded inhibition at 10 µM for various compounds
Provide only the numeric value, understood in %.

Example entries begin here.
compound: O=C1Nc2ccccc2/C1=C\c1ccc2[nH]nnc2c1
inhibition at 10 µM / %: 5
//
compound: O=C1Nc2ccccc2/C1=C\c1ccc2cn[nH]c2c1
inhibition at 10 µM / %: -6
//
compound: COc1ccc2c(c1)C(=Cc1ccc3c(-c4ccc(N5CCN(C)CC5)nc4)n[nH]c3c1)C(=O)N2 (mixture of isomers)
inhibition at 10 µM / %: 7
//
compound: O=C1Nc2ccccc2/C1=C\c1ccc2c(/C=C/c3ccccc3Cl)n[nH]c2c1
inhibition at 10 µM / %: 4

Consider now this further compound.
Which inhibition at 10 µM is listed for O=C1Nc2ccccc2C1=Cc1ccc2c(/C=C/c3ccccn3)n[nH]c2c1 (mixture of isomers) ?
40

----------
Overview of recorded IC50 for various molecules
Target sequence: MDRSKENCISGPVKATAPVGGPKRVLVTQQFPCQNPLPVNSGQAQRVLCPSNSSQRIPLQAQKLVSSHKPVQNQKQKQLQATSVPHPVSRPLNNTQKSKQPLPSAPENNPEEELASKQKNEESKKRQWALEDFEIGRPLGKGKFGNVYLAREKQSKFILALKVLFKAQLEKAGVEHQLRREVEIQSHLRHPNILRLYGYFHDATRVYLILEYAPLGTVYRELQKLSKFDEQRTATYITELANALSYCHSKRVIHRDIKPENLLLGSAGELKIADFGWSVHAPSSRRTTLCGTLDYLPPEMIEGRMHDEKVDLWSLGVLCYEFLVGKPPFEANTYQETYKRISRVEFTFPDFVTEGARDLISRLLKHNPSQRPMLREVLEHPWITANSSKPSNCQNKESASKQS

Example entries begin here.
molecule: O=C1Nc2ncccc2C1=Cc1ccc2c(/C=C/c3cccnc3)n[nH]c2c1 (mixture of isomers)
result: < 5 µM
--
molecule: O=C1Nc2ncc(Br)cc2C1=Cc1ccc2c(/C=C/c3ccncc3)n[nH]c2c1 (mixture of isomers)
result: < 5 µM
--
molecule: CC(C)c1ccc2c(c1)/C(=C\c1ccc3c(/C=C/c4ccncc4)n[nH]c3c1)C(=O)N2 [Example A127, 2,2,2-trifluoroacetate]
result: < 5 µM

Which IC50 is listed for O=C1Nc2ccccc2C1=Cc1ccc2c(/C=C/c3ccccn3)n[nH]c2c1 (mixture of isomers) ?
< 5 µM

Repeat with O=C1Nc2ccc(Cl)cc2C1=Cc1ccc2c(-c3cccnc3)n[nH]c2c1 (mixture of isomers)
> 50 µM

----------
experimental system: EphB4 kinase (Homo sapiens)
Construct: CEREP, France (ran the assays)
Sequence (P54760 16-987): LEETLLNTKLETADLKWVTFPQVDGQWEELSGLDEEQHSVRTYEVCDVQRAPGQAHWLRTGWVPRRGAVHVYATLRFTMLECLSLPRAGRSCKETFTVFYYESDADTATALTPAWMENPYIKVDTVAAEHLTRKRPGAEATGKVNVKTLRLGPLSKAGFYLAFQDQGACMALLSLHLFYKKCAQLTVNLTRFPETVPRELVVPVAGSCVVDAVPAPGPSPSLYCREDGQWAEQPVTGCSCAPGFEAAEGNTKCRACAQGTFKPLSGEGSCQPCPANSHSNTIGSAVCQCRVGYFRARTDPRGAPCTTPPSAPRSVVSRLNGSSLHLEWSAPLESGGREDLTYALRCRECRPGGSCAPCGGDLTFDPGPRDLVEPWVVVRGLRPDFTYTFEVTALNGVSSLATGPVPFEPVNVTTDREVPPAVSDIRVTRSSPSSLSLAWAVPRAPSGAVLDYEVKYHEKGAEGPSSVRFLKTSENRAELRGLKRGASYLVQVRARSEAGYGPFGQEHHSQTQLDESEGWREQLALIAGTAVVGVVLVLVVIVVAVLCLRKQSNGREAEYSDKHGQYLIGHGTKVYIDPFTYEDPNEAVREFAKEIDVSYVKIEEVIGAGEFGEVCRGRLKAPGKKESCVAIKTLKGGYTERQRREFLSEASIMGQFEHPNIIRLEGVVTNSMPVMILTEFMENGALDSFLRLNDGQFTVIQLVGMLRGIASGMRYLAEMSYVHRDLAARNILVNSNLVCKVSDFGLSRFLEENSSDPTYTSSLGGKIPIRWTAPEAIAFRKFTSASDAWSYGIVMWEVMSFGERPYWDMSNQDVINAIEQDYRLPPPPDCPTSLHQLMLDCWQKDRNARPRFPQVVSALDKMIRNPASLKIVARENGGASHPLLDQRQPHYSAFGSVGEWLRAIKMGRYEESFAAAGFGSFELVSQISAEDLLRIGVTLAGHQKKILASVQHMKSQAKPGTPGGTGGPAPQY
assay: Kinase Selectivity Assay (CEREP, HTRF)
Assay type: biochemical
measurement conditions: read-out: % Inhibition at 10 μM Concentration, EphB4
reported property: inhibition at 10 µM

compound: O=C1Nc2ccccc2C1=Cc1ccc2c(/C=C/c3ccccn3)n[nH]c2c1 (mixture of isomers)
experimental system: EphB4 kinase (Homo sapiens)
reported property: inhibition at 10 µM
result: 85%
//
compound: O=C1Nc2ccccc2/C1=C\c1ccc2cn[nH]c2c1
experimental system: EphB4 kinase (Homo sapiens)
reported property: inhibition at 10 µM
result: -5%
//
compound: O=C1Nc2ccccc2/C1=C\c1ccc2c(/C=C/c3ccccc3Cl)n[nH]c2c1
experimental system: EphB4 kinase (Homo sapiens)
reported property: inhibition at 10 µM
result: -14%
//
compound: COc1ccc2c(c1)C(=Cc1ccc3c(-c4ccc(N5CCN(C)CC5)nc4)n[nH]c3c1)C(=O)N2 (mixture of isomers)
experimental system: EphB4 kinase (Homo sapiens)
reported property: inhibition at 10 µM
result: 6%

Which inhibition at 10 µM is listed for O=C1Nc2ccccc2/C1=C\c1ccc2[nH]nnc2c1 ?
5%

Origin of measurements: patent US8765748B2
